From: PubChem BioAssay (Tox21)

- protocol_notes: A CellTox Green Cytotoxicity Assay to monitor cytotoxicity in HEK293 cells - 16 hour (AID 1224888); further: nearly all actives have a fitted effect of over 35% in size
- test_context: CellTox Green fluorescence; series mostly up to 76.8 µM
Results filed as inconclusive are left out. Activity calls are given as the source filed them. The call rests on the fitted dose curve; in most records, active means well fitted activation curve with a large enough effect in the repeat runs; inconclusive means weak or mixed curves; inactive means flat fitted curve, though single readings scatter.

[
  {
    "compound": "CCCCCCCCCC(=O)OCC",
    "activity change": "inactive"
  },
  {
    "compound": "NC1CCN(c2nc3c(cc2F)c(=O)c(C(=O)O)cn3-c2ccc(F)cc2F)C1 (stereo not drawn)",
    "activity change": "inactive"
  },
  {
    "compound": "Cc1ccc(C(N)=O)cc1N",
    "activity change": "inactive"
  },
  {
    "compound": "CCOc1ccc(NC(=O)CC(C)=O)cc1",
    "activity change": "inactive"
  },
  {
    "compound": "CCCCCOC(=O)COc1cc(N2C(=O)C3=C(CCCC3)C2=O)c(F)cc1Cl",
    "activity change": "inactive"
  },
  {
    "compound": "CC[C@]12CCCN3CCc4c(n(c5ccccc45)C(=O)C1)[C@@H]32",
    "activity change": "inactive"
  },
  {
    "compound": "c1ccc(-c2nc[nH]c2-c2ccccc2)cc1",
    "activity change": "inactive"
  },
  {
    "compound": "Cc1ccccc1N=Nc1ccc(N=Nc2c(O)ccc3ccccc23)c(C)c1",
    "activity change": "inactive"
  },
  {
    "compound": "COCCOCCOCCOCCOC",
    "activity change": "inactive"
  },
  {
    "compound": "C=C(C)C(=O)OCCOc1ccccc1",
    "activity change": "inactive"
  },
  {
    "compound": "Cc1cccc(C(C)(C)C)c1O",
    "activity change": "inactive"
  },
  {
    "compound": "CCOC(=S)SSC(=S)OCC",
    "activity change": "inactive"
  },
  {
    "compound": "CCCCCCc1ccc(N)cc1",
    "activity change": "inactive"
  }
]

###

- target_under_test: Cytochrome P450 2D6 (Homo sapiens)
- protocol_notes: Cytochrome P450 Family 2 Subfamily D Member 6 (CYP2D6) small molecule antagonists: luciferase reporter qHTS assay (AID 1671196); further: nearly all actives have a fitted effect of over 50% in size
- test_context: P450-Glo CYP2D6 enzyme assay, luciferin luminescence, 1 h; series mostly up to 115 µM
Results filed as inconclusive are left out. The source made the active and inactive calls. Calls follow the shape of the dose curve; as a rule, active = well fitted inhibition curve with a large enough effect in the repeat runs; inconclusive = weak or mixed curves; inactive = no such curve, though single readings can be large or run the other way.
Classes used: Y = active, N = inactive

[
  {
    "molecule": "CCC(C)N(C)C(=O)c1cc2ccccc2c(-c2ccccc2Cl)n1 (stereo unspecified)",
    "target_under_test": "Cytochrome P450 2D6 (Homo sapiens)",
    "assigned_class": "N"
  },
  {
    "molecule": "C[C@@H](C1=C(CCN(C)C)Cc2ccccc21)c1ccccn1",
    "target_under_test": "Cytochrome P450 2D6 (Homo sapiens)",
    "assigned_class": "Y"
  },
  {
    "molecule": "OC(CCN1CCCCC1)(c1ccccc1)C1CCCCC1 (stereo unspecified)",
    "target_under_test": "Cytochrome P450 2D6 (Homo sapiens)",
    "assigned_class": "Y"
  },
  {
    "molecule": "CC(C)c1cccc(C(C)C)c1NC(=O)NS(=O)(=O)c1cc(C(C)(C)O)co1",
    "target_under_test": "Cytochrome P450 2D6 (Homo sapiens)",
    "assigned_class": "N"
  },
  {
    "molecule": "C=C(C)C(=O)OCCN(C)C",
    "target_under_test": "Cytochrome P450 2D6 (Homo sapiens)",
    "assigned_class": "N"
  },
  {
    "molecule": "CN1CCC(=C2c3ccccc3C=Cc3ccccc32)CC1",
    "target_under_test": "Cytochrome P450 2D6 (Homo sapiens)",
    "assigned_class": "Y"
  }
]
